Where do these numbers come from? They come from the supplement of paper PMC10307832.

system: EMC-BAC-2; assay: relative viability (nuclei count vs DMSO), 5 days (fraction); higher = more cells survive; settings: first compound 0.006325 µM
We begin with a simple list: items and their reported relative viability.

Molecule	relative viability
CC(=O)O[C@@]12CO[C@@H]1C[C@H](O)[C@@]1(C)C(=O)[C@H](O)C3=C(C)[C@@H](OC(=O)[C@H](O)[C@@H](NC(=O)OC(C)(C)C)c4ccccc4)C[C@@](O)([C@@H](OC(=O)c4ccccc4)[C@H]21)C3(C)C [Docetaxel] + Nc1nc2[nH]cc(CCc3ccc(C(=O)N[C@@H](CCC(=O)O)C(=O)O)cc3)c2c(=O)[nH]1 [Pemetrexed] (partner 0.2 µM)	0.361
CC(=O)O[C@@]12CO[C@@H]1C[C@H](O)[C@@]1(C)C(=O)[C@H](O)C3=C(C)[C@@H](OC(=O)[C@H](O)[C@@H](NC(=O)OC(C)(C)C)c4ccccc4)C[C@@](O)([C@@H](OC(=O)c4ccccc4)[C@H]21)C3(C)C [Docetaxel] + Cc1cc(Nc2cc(N3CCN(C)CC3)nc(Sc3ccc(NC(=O)C4CC4)cc3)n2)n[nH]1 [Tozasertib] (partner 0.1 µM)	0.26

====

system: COR-L23; test: relative viability (nuclei count vs DMSO), 5 days (fraction); higher = more cells survive; settings: first compound 0.1581 µM
We begin with a simple list: items and their reported relative viability.
Readout Label: relative viability

Compound	Readout Label	Measured
COc1cc2nccc(Oc3ccc(NC(=O)Nc4cc(C)on4)c(Cl)c3)c2cc1OC [Tivozanib] + CC1(C)CCC(c2ccc(Cl)cc2)=C(CN2CCN(c3ccc(C(=O)NS(=O)(=O)c4ccc(N[C@H](CCN5CCOCC5)CSc5ccccc5)c(S(=O)(=O)C(F)(F)F)c4)cc3)CC2)C1 [Navitoclax] (partner 0.5 µM)	relative viability	0.935
COc1cc2nccc(Oc3ccc(NC(=O)Nc4cc(C)on4)c(Cl)c3)c2cc1OC [Tivozanib] + COc1cccc2cc(-c3nc([C@H]4CC[C@H](C(=O)O)CC4)n4ncnc(N)c34)[nH]c12 [OSI-027] (partner 0.5 µM)	relative viability	0.617
Nc1ccn([C@@H]2O[C@H](CO)[C@@H](O)[C@@H]2O)c(=O)n1 [Cytarabine] + C[C@]1(O)C[C@@H](c2nc(-c3ccc4ccc(-c5ccccc5)nc4c3)c3c(N)nccn32)C1 [Linsitinib] (partner 1 µM)	relative viability	0.159
COc1cc2nccc(Oc3ccc(NC(=O)Nc4cc(C)on4)c(Cl)c3)c2cc1OC [Tivozanib] + Cc1nc(NC(=O)N2CCC[C@H]2C(N)=O)sc1-c1ccnc(C(C)(C)C(F)(F)F)c1 [Alpelisib] (partner 2 µM)	relative viability	0.709
COc1cc2nccc(Oc3ccc(NC(=O)Nc4cc(C)on4)c(Cl)c3)c2cc1OC [Tivozanib] + Nc1nc2[nH]cc(CCc3ccc(C(=O)N[C@@H](CCC(=O)O)C(=O)O)cc3)c2c(=O)[nH]1 [Pemetrexed] (partner 0.2 µM)	relative viability	0.206
COc1cc2nccc(Oc3ccc(NC(=O)Nc4cc(C)on4)c(Cl)c3)c2cc1OC [Tivozanib] + Cc1nc(Nc2ncc(C(=O)Nc3c(C)cccc3Cl)s2)cc(N2CCN(CCO)CC2)n1 [Dasatinib] (partner 0.075 µM)	relative viability	0.485
Nc1ccn([C@@H]2O[C@H](CO)[C@@H](O)[C@@H]2O)c(=O)n1 [Cytarabine] + Cc1nc(Nc2ncc(C(=O)Nc3c(C)cccc3Cl)s2)cc(N2CCN(CCO)CC2)n1 [Dasatinib] (partner 0.075 µM)	relative viability	0.17
Nc1ccn([C@@H]2O[C@H](CO)[C@@H](O)[C@@H]2O)c(=O)n1 [Cytarabine] + COc1cc2c(Oc3ccc(NC(=O)C4(C(=O)Nc5ccc(F)cc5)CC4)cc3F)ccnc2cc1OCCCN1CCOCC1 [Foretinib] (partner 0.25 µM)	relative viability	0.206
COc1cc2nccc(Oc3ccc(NC(=O)Nc4cc(C)on4)c(Cl)c3)c2cc1OC [Tivozanib] + COc1cc2c(Oc3ccc(NC(=O)C4(C(=O)Nc5ccc(F)cc5)CC4)cc3F)ccnc2cc1OCCCN1CCOCC1 [Foretinib] (partner 0.25 µM)	relative viability	0.976
Nc1ccn([C@@H]2O[C@H](CO)[C@@H](O)[C@@H]2O)c(=O)n1 [Cytarabine] + O=C(c1cc(Cc2n[nH]c(=O)c3ccccc23)ccc1F)N1CCN(C(=O)C2CC2)CC1 [Olaparib] (partner 8 µM)	relative viability	0.131
COc1cc2nccc(Oc3ccc(NC(=O)Nc4cc(C)on4)c(Cl)c3)c2cc1OC [Tivozanib] + N=C(N)NC(=N)NCCc1ccccc1 [Phenformin] (partner 250 µM)	relative viability	0.43

====

system: NCI-H2009; experiment: relative viability (nuclei count vs DMSO), 5 days (fraction); higher = more cells survive; details: first compound 0.0002 µM
We begin with a simple list: items and their reported relative viability.

Molecule	relative viability
CC(=O)O[C@@]12CO[C@@H]1C[C@H](O)[C@@]1(C)C(=O)[C@H](O)C3=C(C)[C@@H](OC(=O)[C@H](O)[C@@H](NC(=O)OC(C)(C)C)c4ccccc4)C[C@@](O)([C@@H](OC(=O)c4ccccc4)[C@H]21)C3(C)C [Docetaxel] + CC(=O)Nc1cccc(-n2c(=O)n(C3CC3)c(=O)c3c(Nc4ccc(I)cc4F)n(C)c(=O)c(C)c32)c1 [Trametinib] (partner 0.02 µM)	0.273
CC(=O)O[C@@]12CO[C@@H]1C[C@H](O)[C@@]1(C)C(=O)[C@H](O)C3=C(C)[C@@H](OC(=O)[C@H](O)[C@@H](NC(=O)OC(C)(C)C)c4ccccc4)C[C@@](O)([C@@H](OC(=O)c4ccccc4)[C@H]21)C3(C)C [Docetaxel] + CC(=O)c1c(C)c2cnc(Nc3ccc(N4CCNCC4)cn3)nc2n(C2CCCC2)c1=O [Palbociclib] (partner 0.5 µM)	0.135
CC(=O)O[C@@]12CO[C@@H]1C[C@H](O)[C@@]1(C)C(=O)[C@H](O)C3=C(C)[C@@H](OC(=O)[C@H](O)[C@@H](NC(=O)OC(C)(C)C)c4ccccc4)C[C@@](O)([C@@H](OC(=O)c4ccccc4)[C@H]21)C3(C)C [Docetaxel] + Cc1nc(NC(=O)N2CCC[C@H]2C(N)=O)sc1-c1ccnc(C(C)(C)C(F)(F)F)c1 [Alpelisib] (partner 2 µM)	1.13

====

We begin with a simple list: items and their reported relative viability.
tested on: NCI-H1792; assay: relative viability (nuclei count vs DMSO), 5 days (fraction); higher = more cells survive; conditions: first compound 0.8 µM

Compound	relative viability
Cc1cnc(-c2cnc(NCCNc3ccc(C#N)cn3)nc2-c2ccc(Cl)cc2Cl)[nH]1 + CS(=O)(=O)N1CCN(Cc2cc3nc(-c4cccc5[nH]ncc45)nc(N4CCOCC4)c3s2)CC1 [Pictilisib] (partner 1 µM)	0.25
O=c1[nH]c2ccccc2n1C1CCN(CCCC(c2ccc(F)cc2)c2ccc(F)cc2)CC1 [Pimozide] + CC(=O)Nc1cccc(-n2c(=O)n(C3CC3)c(=O)c3c(Nc4ccc(I)cc4F)n(C)c(=O)c(C)c32)c1 [Trametinib] (partner 0.02 µM)	0.36
O=c1[nH]c2ccccc2n1C1CCN(CCCC(c2ccc(F)cc2)c2ccc(F)cc2)CC1 [Pimozide] + Nc1nc2[nH]cc(CCc3ccc(C(=O)N[C@@H](CCC(=O)O)C(=O)O)cc3)c2c(=O)[nH]1 [Pemetrexed] (partner 0.2 µM)	0.43
O=c1[nH]c2ccccc2n1C1CCN(CCCC(c2ccc(F)cc2)c2ccc(F)cc2)CC1 [Pimozide] + Cc1nc(Nc2ncc(C(=O)Nc3c(C)cccc3Cl)s2)cc(N2CCN(CCO)CC2)n1 [Dasatinib] (partner 0.075 µM)	0.769
O=c1[nH]c2ccccc2n1C1CCN(CCCC(c2ccc(F)cc2)c2ccc(F)cc2)CC1 [Pimozide] + CS(=O)(=O)N1CCN(Cc2cc3nc(-c4cccc5[nH]ncc45)nc(N4CCOCC4)c3s2)CC1 [Pictilisib] (partner 1 µM)	0.25
Cc1cnc(-c2cnc(NCCNc3ccc(C#N)cn3)nc2-c2ccc(Cl)cc2Cl)[nH]1 + CC(=O)c1c(C)c2cnc(Nc3ccc(N4CCNCC4)cn3)nc2n(C2CCCC2)c1=O [Palbociclib] (partner 0.5 µM)	0.646
Cc1cnc(-c2cnc(NCCNc3ccc(C#N)cn3)nc2-c2ccc(Cl)cc2Cl)[nH]1 + CC1(C)CCC(c2ccc(Cl)cc2)=C(CN2CCN(c3ccc(C(=O)NS(=O)(=O)c4ccc(N[C@H](CCN5CCOCC5)CSc5ccccc5)c(S(=O)(=O)C(F)(F)F)c4)cc3)CC2)C1 [Navitoclax] (partner 0.5 µM)	0.601
O=c1[nH]c2ccccc2n1C1CCN(CCCC(c2ccc(F)cc2)c2ccc(F)cc2)CC1 [Pimozide] + C[C@@H](Oc1cc(-c2cnn(C3CCNCC3)c2)cnc1N)c1c(Cl)ccc(F)c1Cl [Crizotinib] (partner 1 µM)	0.937
